Recorded measurements of log10 of IC50, one per entry
# target_desc: EGFRΔ19del/T790M/C797S (Homo sapiens, UniProt P00533, T790M/C797S, form not given)
# Sequence (P00533 with tags, fused parts or gaps DEL746-750/T790M/C797S, form open): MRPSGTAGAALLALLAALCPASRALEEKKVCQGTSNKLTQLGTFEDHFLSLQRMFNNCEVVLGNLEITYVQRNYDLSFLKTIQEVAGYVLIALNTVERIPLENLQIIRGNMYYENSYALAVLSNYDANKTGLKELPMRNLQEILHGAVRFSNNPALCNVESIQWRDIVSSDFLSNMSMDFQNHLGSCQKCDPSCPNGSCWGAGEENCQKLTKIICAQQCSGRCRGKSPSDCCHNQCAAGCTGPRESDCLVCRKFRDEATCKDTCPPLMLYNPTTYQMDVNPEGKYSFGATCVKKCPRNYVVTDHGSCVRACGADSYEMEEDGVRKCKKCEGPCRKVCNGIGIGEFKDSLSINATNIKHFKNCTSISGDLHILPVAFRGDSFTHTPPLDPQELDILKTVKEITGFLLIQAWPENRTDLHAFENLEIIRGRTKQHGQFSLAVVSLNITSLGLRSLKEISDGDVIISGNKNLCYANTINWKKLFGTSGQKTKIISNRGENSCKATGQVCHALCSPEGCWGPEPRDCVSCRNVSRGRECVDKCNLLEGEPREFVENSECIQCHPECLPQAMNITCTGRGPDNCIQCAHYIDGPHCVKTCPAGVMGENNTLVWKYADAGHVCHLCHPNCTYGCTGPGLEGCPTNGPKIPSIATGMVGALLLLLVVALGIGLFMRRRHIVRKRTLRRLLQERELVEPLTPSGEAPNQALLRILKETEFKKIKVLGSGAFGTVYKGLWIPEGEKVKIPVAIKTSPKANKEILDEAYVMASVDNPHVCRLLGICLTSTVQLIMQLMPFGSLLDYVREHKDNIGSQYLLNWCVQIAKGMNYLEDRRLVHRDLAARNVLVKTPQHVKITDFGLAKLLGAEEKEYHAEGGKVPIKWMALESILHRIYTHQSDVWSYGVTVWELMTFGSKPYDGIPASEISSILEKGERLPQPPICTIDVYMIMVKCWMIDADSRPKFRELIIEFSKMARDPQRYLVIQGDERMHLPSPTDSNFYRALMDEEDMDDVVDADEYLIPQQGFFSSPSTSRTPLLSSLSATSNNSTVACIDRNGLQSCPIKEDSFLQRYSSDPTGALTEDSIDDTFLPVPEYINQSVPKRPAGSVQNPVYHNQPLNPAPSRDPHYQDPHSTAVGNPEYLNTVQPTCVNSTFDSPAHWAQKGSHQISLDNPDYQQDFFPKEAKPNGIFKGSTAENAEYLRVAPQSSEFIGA
# measurement_notes: EGFR Δ19del/T790M/C797S kinase test (mobility variation analysis, Caliper EZ Reader)
# condition: kinase enzymatic activity, Table 1
Lab note - IC50 converted to log10 from values in pM.

Consider the worked cases shown below.
CCc1cc(Nc2ncc(Br)c(Nc3ccc(-c4cn(C)cn4)cc3P(C)(C)=O)n2)c(OC)cc1N1CCC(N2CCN(C)CC2)CC1
2.95
CCc1cc(Nc2ncc(Cl)c(Nc3ccc(-c4cn[nH]c4)cc3P(C)(C)=O)n2)c(OC)cc1N1CCC(N2CCN(C)CC2)CC1
2.48
CCc1cc(Nc2ncc(Br)c(Nc3ccc(-c4cscn4)cc3P(C)(C)=O)n2)c(OC)cc1N1CCC(N2CCN(C)CC2)CC1
2.30

Problem: # query: log10 of IC50 of entry "CCc1cc(Nc2ncc(Br)c(Nc3ccc(-c4cnn(C)c4)c(OC)c3P(C)(C)=O)n2)c(OC)cc1N1CCC(N2CCN(C)CC2)CC1"
Solution: 2.60

Problem: Can you check CCc1cc(Nc2ncc(Br)c(Nc3ccc(-c4ccc(C)cn4)cc3P(C)(C)=O)n2)c(OC)cc1N1CCC(N2CCN(C)CC2)CC1 [Compound K-071] next?
Solution: 2.48

Problem: Same question for "CCc1cc(Nc2ncc(Br)c(Nc3ccc(-c4ccccc4)cc3P(C)(C)=O)n2)c(OC)cc1N1CCC(N2CCN(C)CC2)CC1" please.
Solution: 2.70

Problem: Continue with "CCc1cc(Nc2ncc(Br)c(Nc3ccc(-n4cc(OC)cn4)cc3P(C)(C)=O)n2)c(OC)cc1N1CCC(N2CCCCC2)CC1"
Solution: 2.48

Problem: And the next one, "CCc1cc(Nc2ncc(Br)c(Nc3ccc(-c4nccn4C4CC4)cc3P(C)(C)=O)n2)c(OC)cc1N1CCC(N2CCN(C)CC2)CC1" ?
Solution: 3.60

Problem: Same for "COc1cc(Nc2ncc(Br)c(Nc3ccc(-c4cnc(C5CC5)cn4)cc3P(C)(C)=O)n2)c(C)cc1N1CCOCC1"
Solution: 2.48

Problem: Could you do the same for "CCc1cc(Nc2ncc(Br)c(Nc3ccc(-c4cnn(CCN5CCOCC5)c4)cc3P(C)(C)=O)n2)c(OC)cc1N1CCC(N2CCN(C)CC2)CC1" , please?
Solution: 2.95

Problem: Record: CCc1cc(Nc2ncc(Br)c(Nc3ccc(-c4cnn(C)n4)c(F)c3P(C)(C)=O)n2)c(OC)cc1N1CCC(N2CCN(C)CC2)CC1 [Compound 84]
Solution: 2.00

Problem: Record: CCc1cc(Nc2ncc(Br)c(Nc3ccc(-n4cc(C)cn4)cc3P(C)(C)=O)n2)c(OC)cc1N1CCC(N2CCN(C)CC2)CC1 [Compound K-069]
Solution: 2.83

Problem: And then "CCc1cc(Nc2ncc(Cl)c(Nc3ccc(-c4cncs4)cc3P(C)(C)=O)n2)c(OC)cc1N1CCC(N2CCN(C)CC2)CC1" , what is it?
Solution: 2.48

---

# Test system: A431
# measurement_notes: A431 cell proliferation assay (CellTiter Glo, 72 hours)
# Format: cell-based
# condition: Homo sapiens, A-431, 72 h, cell proliferation, A431, 72 hours, Table 2; read-out: A431 IC50
measured_attribute: pIC50
Remember the convention: pIC50 equals -log10 of concentration in molar.

Problem: For the compound shown here, "CCc1cc(Nc2ncc(Br)c(Nc3ccc(-n4cc(OC)cn4)cc3P(C)(C)=O)n2)c(OC)cc1N1CCC(N2CCN(C)CC2)CC1" , give the reported pIC50.
Solution: 5.82

src = patent US20220402948A1
